The reader will find reported Neut IC50 (ug/ml) subtype B values listed item by item below.
biological target: RSV F protein of subtype B strain 18537, on virus (respiratory syncytial virus subtype B …, UniProt P13843 26-574); test: cell-based or functional assay
Sequence (P13843 26-574): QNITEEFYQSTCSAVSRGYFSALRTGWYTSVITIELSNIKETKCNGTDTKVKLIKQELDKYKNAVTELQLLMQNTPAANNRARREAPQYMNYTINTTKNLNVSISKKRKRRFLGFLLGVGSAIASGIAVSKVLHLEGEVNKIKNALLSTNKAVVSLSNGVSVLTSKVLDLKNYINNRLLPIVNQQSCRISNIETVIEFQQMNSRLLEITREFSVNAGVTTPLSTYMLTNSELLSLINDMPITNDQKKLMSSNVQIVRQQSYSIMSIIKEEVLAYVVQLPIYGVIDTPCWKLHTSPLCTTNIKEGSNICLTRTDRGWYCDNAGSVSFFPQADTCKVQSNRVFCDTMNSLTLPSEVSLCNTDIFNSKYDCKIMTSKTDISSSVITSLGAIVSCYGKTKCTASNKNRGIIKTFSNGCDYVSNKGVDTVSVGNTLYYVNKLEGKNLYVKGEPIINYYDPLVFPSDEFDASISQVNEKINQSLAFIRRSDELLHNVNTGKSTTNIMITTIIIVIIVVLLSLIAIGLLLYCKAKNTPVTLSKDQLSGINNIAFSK
Give the value, in units of µg/mL, as a plain number.

Consider the reported Neut IC50 (ug/ml) subtype B for these binders:
binder: ADI-15606 (antibody, V domains shown, IgG) VH: EVQLLESGGGLVQPGGSLRLSCAASGFTFRRYAMTWVRQAPGKGLEWVAAITATGDTTYYPDSVKGRFAVSRDNSRNTLYLQMDSLRAEDTALYYCAKSWDDYGDLDWYFALWGRGTLVTVSS VL: DIVMTQSPAILSVSPGERATLSCRASQSVSSSLAWYQQKPGQAPRLLIYGASTRATGIPPRFSGSGSGTQFTLTISSLQSEDFAVYYCQQYSDWPPLTFGGGTKVEIK
output_unit: µg/mL
measured_result: 0.802
--
binder: ADI-15597 (antibody, V domains shown, IgG) VH: QVQLVQSGGGLVKPGGSLRLSCAGSGFTFSSYTLNWVRQAPGKGLEWVSSISSSSTYIYYADSVKGRFTISRDNAKNSLHLQMNSLRAEDTAVYYCARADYDRSVYHLNWFDPWGQGTLVTVSS VL: QSVLTQPPSVSGAPGQRVTISCTGSSSNIGAGYDVHWYQQLPGAAPKLLIYGNTNRPSGVPDRFSGSKSGTSASLAITGLQADDEADYYCQSYDSSLSGTWVFGGGTKLTVL
output_unit: µg/mL
measured_result: 1.79
--
binder: ADI-15574 (antibody, V domains shown, IgG; also called Antibody Number 144) VH: QVQLVQSGGGLVKPGGSLRLSCAASGFTISGYNMFWVRQPPGKGLEWVSSITAGSSYLNYADSVKGRFIVSRDNAKNSLYLQMNSLRAEDTAVYFCARAPLLPAMMDLWGQGTTVTVSS VL: QSVLTQPPSVSGAPGQRVTISCTGSSSNIGAGYDVHWYQQLPGTAPKLLIYTNNNRPSGVPDRFSGSKSGTSASLAITGLQAEDEADYYCQSYDRSLNGYVFGTGTKLTVL
output_unit: µg/mL
measured_result: 0.226

Continue with the binder presented below.
GET /value?item= ADI-15620 (antibody, V domains shown, IgG) VH: QVQLVQSGAEVKKPGASVKVSCKASGYTFTSYDINWVRQATGHGLEWMGWMSPNSGYTGYAQKFQGRVTMSRNTSTGTAYMELSSLRSEDTAVYYCAREARDLRVGATNFDYWGQGTLVTVSS VL: QPVLTQPPSVSVSPGQTASITCSGDKLGDKYISWYQQRPGQSPVMVIYQDSKGPSGIPERFSGSNSGNTATLTISGTQAMDEADYYCQAWDSSIDVVFGGGTKLTVL &field=Neut IC50 (ug/ml) subtype B returns 0.053
